List of Viability (%) values.
- Tested on: cerebellar granule cells (CGC)
- Assay Method Text: Evaluation Test 2: viability of primary-cultured CGC by MTT assay (differentiation promoting action)
- Experimental Parameters: 0.1 μM added days 1 and 4; KCl 15 mM; MTT day 7; percent of control sample with KCl 25 mM
Where a SMILES comes first, the peptide text is derived from it. [ ]: non-standard residue; d: D form. Hyp = O=C(O)[C@@H]1C[C@@H](O)CN1
The reply should contain only the number, in %.

IN: Requested read-out: Viability (%). Entry: O=C(O)CNC(=O)[C@@H]1C[C@@H](O)CN1 [OG] (H-[Hyp]-Gly-OH)
OUT: 54.5

IN: Requested read-out: Viability (%). Entry: NCC(=O)N1CCC[C@H]1C(=O)N1C[C@H](O)C[C@H]1C(=O)O [GPO] (H-Gly-Pro-[Hyp]-OH)
OUT: 56.3

IN: Requested read-out: Viability (%). Entry: NCC(=O)N1CCC[C@H]1C(=O)O [GP] (H-Gly-Pro-OH; N-terminus and C-terminus assumed)
OUT: 48.4

IN: Requested read-out: Viability (%). Entry: N[C@@H](CCC(=O)N[C@@H](CS)C(=O)NCC(=O)O)C(=O)O [Glutathione, glutathione]
OUT: 63.5
